Molecular target: hEP2/Gqs5 (Homo sapiens, UniProt P43116)
Construct: expressed in transfected cells; host or cells: HEK-293(EBNA)
Sequence (P43116 whole entry): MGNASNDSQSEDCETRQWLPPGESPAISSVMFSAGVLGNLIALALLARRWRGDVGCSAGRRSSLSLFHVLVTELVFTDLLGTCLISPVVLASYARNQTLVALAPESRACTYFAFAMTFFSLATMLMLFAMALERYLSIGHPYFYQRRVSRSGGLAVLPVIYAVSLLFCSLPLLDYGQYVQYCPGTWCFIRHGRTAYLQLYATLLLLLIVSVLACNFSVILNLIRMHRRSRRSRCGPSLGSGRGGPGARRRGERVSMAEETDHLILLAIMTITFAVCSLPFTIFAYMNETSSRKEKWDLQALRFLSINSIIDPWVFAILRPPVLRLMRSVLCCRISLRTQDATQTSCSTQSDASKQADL
Assay: FLIPR calcium signal, hEP2
Format: cell-based
Conditions: FLIPR Ca2+ signal, HEK-293(EBNA); read-out: FUNCTIONAL EC50 HEP2
quantity: EC50

Below, 4 compounds whose answers are already recorded.
CCCC1(C(O)c2cccc([C@@H]3[C@@H](C/C=C\CCCC(=O)OC)[C@H](Cl)C[C@H]3O)c2)CCC1 (stereo partly shown) | > 10 µM
COC(=O)CCCCCC[C@@H]1[C@@H](c2ccc(C(C)(C)CO)cc2)[C@H](O)C[C@H]1Cl [drawing 119] | > 10 µM
CC(C)(CO)c1ccc([C@@H]2[C@@H](C/C=C\CCCC(=O)O)[C@H](Cl)C[C@H]2O)cc1 [drawing 114] | > 10 µM
CCCC1(C(O)c2cccc([C@H]3[C@H](O)CC(=O)[C@@H]3C/C=C\CCCC(=O)NCC)c2)CCC1 (stereo partly shown) | > 10 µM

Consider COC(=O)CCCCCC[C@@H]1[C@@H](c2ccc(C(O)C(C)C)cc2)[C@H](O)C[C@H]1Cl (stereo partly shown) . Its measured EC50 is > 10 µM

Consider COC(=O)CCC/C=C\C[C@@H]1[C@@H](c2ccc(C(C)(C)C)cc2)[C@H](O)C[C@H]1Cl . Its measured EC50 is > 10 µM

Consider CCCC1(C(O)c2cccc([C@H]3[C@H](O)CC(=O)[C@@H]3C/C=C\CCCC(=O)OC)c2)CCC1 (stereo partly shown) . Its measured EC50 is > 10 µM

Consider CCCC1(C(O)c2ccc([C@@H]3[C@@H](C/C=C\CCCC(=O)OC)[C@H](Cl)C[C@H]3O)cc2)CCC1 (stereo partly shown) . Its measured EC50 is > 10 µM

Consider O=C(O)CCCCCC[C@H]1C(=O)C[C@@H](O)[C@@H]1c1ccc(C2(O)CCC2)cc1 . Its measured EC50 is > 10 µM
